Just for reference, patent US10550135B2 is where these values come from.

# pEC50 per entry
system: Plasmodium falciparum (3D7); experiment: Anti-malarial screening, P. falciparum 3D7 growth in human RBC culture, SybrGreen fluorescence; type: cell-based; conditions: dose response, 10 μM to 1 nM dilution series, 3D7
pEC50 is defined as minus the log10 of a concentration measured in mol/L.

### Prompt Any idea what its pEC50 is? The compound is C[Si]1(C)CCN(Cc2ccc(-c3cc(C(=O)Nc4ccccn4)c4cc(F)ccc4n3)cc2)CC1
### Response 6.09

### Prompt Requested read-out: pEC50. Entry: C[Si]1(C)CCN(Cc2ccc(-c3cc(C(=O)NCCN4CCOCC4)c4cc(F)ccc4n3)cc2)CC1
### Response 5.90

### Prompt Reported pEC50, compound C[Si]1(C)CCN(Cc2ccc(-c3cc(C(=O)NCCO)c4cc(F)ccc4n3)cc2)CC1 : ____
### Response 5.21

### Prompt What measured pEC50 goes with C[Si]1(C)CCN(Cc2ccc(-c3cc(C(=O)NCCN4CCCCC4)c4cc(F)ccc4n3)cc2)CC1 ?
### Response 6.95

### Prompt // query pEC50 value for entry CN1CCN(CCNC(=O)c2cc(-c3ccc(CN4CC[Si](C)(C)CC4)cc3)nc3ccc(F)cc23)CC1
### Response 6.39

### Prompt What does the record list as pEC50 for C[Si]1(C)CCN(Cc2ccc(-c3cc(C(=O)NCCN4CCCC4)c4cc(F)ccc4n3)cc2)CC1 ?
### Response 7.22

### Prompt // returns reported pEC50 for input C[Si]1(C)CCN(CCNC(=O)c2cc(-c3ccc(CN4CCOCC4)cc3)nc3ccc(F)cc23)CC1
### Response 7.30

### Prompt I am curious: what pEC50 value has been reported for C[Si]1(C)CCN(Cc2ccc(-c3cc(C(=O)NCCN4CCSCC4)c4cc(F)ccc4n3)cc2)CC1 ?
### Response 6.02
